FYI, the data here is from patent US4711883A.

Assay: bioavailability comparison, MABP in conscious cannulated SHR (i.v. and oral)
Type: in vivo, spontaneously hypertensive rats (SHR)
Details: rat, in vivo; SHR; small numbers (close to unity) indicate good bioavailability; read-out: Ratio P.O./I.V. (bioavailability ratio)
Counter-ions that a name gives are not always drawn.
attributeMeasured: selectivity ratio
Give a plain numeric answer without units written out.

compound	selectivity ratio
COc1ccccc1N1CCN(CCn2c(=O)[nH]c3ccccc3c2=O)CC1 [Compound Z, reference compound]	740

Query compound follows.
Req: Let me know recorded selectivity ratio for COc1ccccc1N1CCN(CCn2c(=O)[nH]c3ccc(OC)c(OC)c3c2=O)CC1 [Compound A, monohydrobromide] , thanks.
Resp: 38.9
